- procedure details: Metabolic stability in liver microsomes
- Format: in vitro ADME
- applied conditions: Beagle dog liver microsomes, compound 1 μM
Measured metabolic stability (halftime in minutes), Dog of individual entries

>  <smiles input>
CCc1nn2cc(F)c(N3CC4(CN(C(=O)[C@H]5CCOC5)C4)C3)cc2c1N(C)c1nc(-c2ccc(F)cc2)c(C#N)s1

>  <value reported>
69.8 min

$$$$
>  <smiles input>
CCc1nn2cc(F)c(N3CCN(CC(=O)N4CC(O)C4)CC3)cc2c1N(C)c1nc(-c2ccc(F)cc2)c(C#N)s1

>  <value reported>
71.9 min

$$$$
>  <smiles input>
CCn1nc2ncc(N3CC4(CN(C(=O)C5CCOCC5)C4)C3)cc2c1N(C)c1nc(-c2ccc(F)cc2)c(C#N)s1

>  <value reported>
>145 min

$$$$

Now for another entry.
**Query** Let me know recorded metabolic stability (halftime in minutes), Dog for CCc1nc2c(C)cc(N3CCN(CC(=O)N4CC(O)C4)CC3)cn2c1N(C)c1nc(-c2ccc(F)cc2)c(C#N)s1 , thanks.
**Result** 32.1 min

---

Measured IC50 of individual entries
- tested system: Autotaxin (Homo sapiens, UniProt Q13822)
- Construct: from tissue; host or cells: pooled human plasma
- procedure details: LPA formation in pooled human plasma (ex vivo autotaxin inhibition)
- Format: biochemical
- applied conditions: 2 hours incubation, LPA 20:4 by LC/MS/MS, read-out: LPA formation (20:4) (IC50)

>  <molecule>
CCc1nn2ccc(N3CCC4(CC3)CN(C(=O)N3CC(O)C3)C4)cc2c1N(C)c1nc(-c2ccc(F)cc2)c(C#N)s1 [Example 12]

>  <IC50>
≤ 100 nM

$$$$
>  <molecule>
Cc1cc(N2CCN(C[C@H](O)CO)CC2)cc2c(N(C)c3nc(-c4ccc(F)cc4)c(C#N)s3)c(C3CC3)nn12 [Example 83]

>  <IC50>
500 to 1000 nM

$$$$
>  <molecule>
CCn1nc2ncc(N3CC4(CN(C(=O)C5(O)CCOCC5)C4)C3)cc2c1N(C)c1nc(-c2ccc(F)cc2)c(C#N)s1 [Compound 116]

>  <IC50>
≤ 100 nM

$$$$
>  <molecule>
CCc1nn2c(C)cc(N3CC4(CCN(C(=O)[C@H]5CCOC5)C4)C3)cc2c1N(C)c1nc(-c2ccc(F)cc2)c(C#N)s1 [Example 45]

>  <IC50>
≤ 100 nM

$$$$
>  <molecule>
CCc1nn2c(C)cc(N3CCC4(CN(C(=O)[C@H]5CCOC5)C4)C3)cc2c1N(C)c1nc(-c2ccc(F)cc2)c(C#N)s1 [Example 51]

>  <IC50>
≤ 100 nM

$$$$

**Query** Let me know recorded IC50 for CCc1nn2c(C)cc(N3CC4(CN(C(=O)c5cnco5)C4)C3)cc2c1N(C)c1nc(-c2ccc(F)cc2)c(C#N)s1 [Example 57] , thanks.
**Result** ≤ 100 nM

**Query** Let me know recorded IC50 for CCc1nn2c(C)cc(N3CC4(CN(C(=O)c5ccon5)C4)C3)cc2c1N(C)c1nc(-c2ccc(F)cc2)c(C#N)s1 [Example 70] , thanks.
**Result** 100 to 500 nM

**Query** Let me know recorded IC50 for CCc1nn2cc(C)c(N3CC4(CN(C(=O)[C@H]5CCOC5)C4)C3)cc2c1N(C)c1nc(-c2ccc(F)cc2)c(C#N)s1 [Example 97] , thanks.
**Result** ≤ 100 nM

**Query** Let me know recorded IC50 for CCc1nn2ccc(N3CC4(CCN(C(=O)N5CC(O)C5)C4)C3)cc2c1N(C)c1nc(-c2ccc(F)cc2)c(C#N)s1 [Example 15] , thanks.
**Result** ≤ 100 nM

**Query** Let me know recorded IC50 for Cc1cc(N2CC3(CN(C(=O)[C@H]4CCOC4)C3)C2)cc2c(N(C)c3nc(-c4ccc(F)cc4)c(C#N)s3)c(C3CC3)nn12 [Example 78] , thanks.
**Result** ≤ 100 nM

**Query** Let me know recorded IC50 for CCc1nn2c(C)cc(N3CCN(CC(=O)N4CC[C@@H](O)C4)CC3)cc2c1N(C)c1nc(-c2ccc(F)cc2)c(C#N)s1 [Example 25] , thanks.
**Result** ≤ 100 nM

**Query** Let me know recorded IC50 for CCc1nn2ccc(N3CC4(CC4C(=O)N4CC(O)C4)C3)cc2c1N(C)c1nc(-c2ccc(F)cc2)c(C#N)s1 (stereo not shown) [Example 7] , thanks.
**Result** 100 to 500 nM

**Query** Let me know recorded IC50 for CCc1nn2ccc(N3CC4(CC(C(=O)N5CC(O)C5)C4)C3)cc2c1N(C)c1nc(-c2ccc(F)cc2)c(C#N)s1 [Example 8] , thanks.
**Result** 100 to 500 nM
